system: U2OS; test: Multiplex assay against U2OS; type: toxicity, cell-based; settings: human, 24 h, 1 µM, compound concentration 1 uM, replicate 2
PROPERTY MEASURED: Population Tubulin-Different-Phenotype (%)
I only need the number, in %, no unit after it.

Worked set:
COC(=O)C1=C(C)NC(C)=C(C(=O)OCCCN2CCC(c3ccccc3)(c3ccccc3)CC2)[C@H]1c1cccc([N+](=O)[O-])c1	100
CC(C)(C)NC[C@H](O)COc1nsnc1N1CCOCC1	21
Cc1ccc2c(c1)c1c(n2CCc2ccc(C)nc2)CCN(C)C1 [LATREPIRDINE]	14
C=CC(=O)Nc1ccc2[nH]c(=O)n(C3CCN(Cc4ccc(-c5nc6cc[nH]c(=O)c6cc5-c5ccccc5)cc4)CC3)c2c1	28
CC(C)c1noc(N2CCC(COc3ccc(-c4ccc(S(C)(=O)=O)cc4)nc3)CC2)n1	13
CN1CCN(Cc2ccc(Nc3ncc(Cl)c(Nc4ccccc4S(=O)(=O)N(C)C)n3)cc2)CC1	14

Task: Quick check: Population Tubulin-Different-Phenotype (%) of CCOC(=O)Nc1cc(-c2ccc(C)c(NS(C)(=O)=O)c2)nn2c(C)nnc12 ?
Result: 59

Task: Quick check: Population Tubulin-Different-Phenotype (%) of CC(C)CC(=O)Nc1[nH]nc2c1CN(C(=O)C1CCN(C)CC1)C2(C)C ?
Result: 34

Task: Quick check: Population Tubulin-Different-Phenotype (%) of C=CC(=O)Nc1cccc(Oc2nc(Nc3ccc(N4CCN(C)CC4)cc3OC)ncc2Cl)c1 ?
Result: 100

Task: Quick check: Population Tubulin-Different-Phenotype (%) of CCCSc1nc(N[C@@H]2C[C@H]2c2ccc(F)c(F)c2)c2nnn([C@@H]3C[C@H](OCCO)[C@@H](O)[C@H]3O)c2n1 ?
Result: 11

Task: Quick check: Population Tubulin-Different-Phenotype (%) of O=c1cc(N2CCOCC2)oc2c(-c3cccc4c3sc3ccccc34)cccc12 ?
Result: 15

###

system: HEK-293T; test: Multiplex assay against HEK293T; assay type: toxicity, cell-based; settings: human, 24 h, 1 µM, compound concentration 1 uM, replicate 1
Recorded Population Mitotic Cells (%) by entry
I only need the number, in %, no unit after it.

Worked set:
C[C@]12CC[C@@H]3c4ccc(O)cc4CC[C@H]3[C@@H]1CC[C@@H]2O	62
CC(C)NC(=O)N1CC[C@H](NC2=Nc3cc(F)ccc3N(CC(F)F)c3ccc(Cl)cc32)C1	62
COc1cc2ncn(-c3cc(OCc4ccccc4C(F)(F)F)c(C(N)=O)s3)c2cc1OC [GW843682X]	43
CCc1ccc(OCc2ccccc2C(=O)Nc2ccc3nc(C)cc(N)c3c2)cc1.Cl	14
O=c1cc(N2CCOCC2)oc2c(-c3cccc4c3sc3ccccc34)cccc12	46

Task: Quick check: Population Mitotic Cells (%) of CNC(=O)Nc1ccc(-c2nc(N3CC4CCC(C3)O4)c3cnn(C4CCC5(CC4)OCCO5)c3n2)cc1 ?
Result: 31

Task: Quick check: Population Mitotic Cells (%) of COc1ccccc1CN[C@H]1C2CCN(CC2)[C@H]1C(c1ccccc1)c1ccccc1 ?
Result: 43

Task: Quick check: Population Mitotic Cells (%) of CCc1nn(CCCN2CCN(c3cccc(Cl)c3)CC2)c(=O)n1CCOc1ccccc1.Cl [NEFAZODONE HYDROCHLORIDE] ?
Result: 50

Task: Quick check: Population Mitotic Cells (%) of COc1cc(Nc2nccc(-c3cnn4nc(OC)ccc34)n2)cc(C(F)(F)F)c1 ?
Result: 52

Task: Quick check: Population Mitotic Cells (%) of Cc1ccc2c(c1)c1c(n2CCc2ccc(C)nc2)CCN(C)C1 [LATREPIRDINE] ?
Result: 44

Task: Quick check: Population Mitotic Cells (%) of CC(C)(C)NC[C@H](O)COc1nsnc1N1CCOCC1 ?
Result: 50

Task: Quick check: Population Mitotic Cells (%) of Cc1cccc(CN2CCN(C(c3ccccc3)c3ccc(Cl)cc3)CC2)c1.Cl.Cl (configuration not stated) ?
Result: 48

Task: Quick check: Population Mitotic Cells (%) of CC1=C(C(=O)Nc2cc3cn[nH]c3cc2F)C(c2ccc(C(F)(F)F)cc2)CC(=O)N1 (configuration not stated) ?
Result: 58

Task: Quick check: Population Mitotic Cells (%) of C=CC(=O)Nc1cccc(Sc2nc(Nc3ccc(N4CCN(C)CC4)cc3)ncc2Cl)c1 ?
Result: 44

Task: Quick check: Population Mitotic Cells (%) of CC(C)CC(=O)Nc1[nH]nc2c1CN(C(=O)C1CCN(C)CC1)C2(C)C ?
Result: 72

Task: Quick check: Population Mitotic Cells (%) of CN1CCN(Cc2ccc(Nc3ncc(Cl)c(Nc4ccccc4S(=O)(=O)N(C)C)n3)cc2)CC1 ?
Result: 46

Task: Quick check: Population Mitotic Cells (%) of Cl.O=C(O)c1cc(-c2ccc(C3CCNCC3)cc2)c2ccc(-c3ccc(C(F)(F)F)cc3)cc2c1 ?
Result: 56

###

test system: Fibroblast; experiment: Multiplex assay against human fibroblast; type: toxicity, cell-based; conditions: 48 h, 1 µM, compound concentration 1 uM, replicate 2
PROPERTY MEASURED: Population Healthy Nuclei (%)
I only need the number, in %, no unit after it.

Worked set:
COc1ccc(-c2ccc3ncc4c(c3c2)n(-c2ccc(N3CCNCC3)c(C(F)(F)F)c2)c(=O)n4C)cn1.O=C(O)/C=C\C(=O)O	59
COc1ccccc1CN[C@H]1C2CCN(CC2)[C@H]1C(c1ccccc1)c1ccccc1	61
CC(C)OC(=O)N1CCC(Oc2ncnc3c2cnn3-c2ccc(S(C)(=O)=O)cc2F)CC1	74

Task: Quick check: Population Healthy Nuclei (%) of CC(C)(C)NC[C@H](O)COc1nsnc1N1CCOCC1 ?
Result: 84

###

system: HEK-293T; assay: Multiplex assay against HEK293T; type: toxicity, cell-based; settings: human, 24 h, 10 µM, compound concentration 10 uM, replicate 1;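 for Population Tubulin-Different-Phenotype (%): share of the cells with healthy nuclei that show this phenotype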
Recorded Population Tubulin-Different-Phenotype (%) by entry
I only need the number, in %, no unit after it.

Worked set:
CC(C)c1noc(N2CCC(COc3ccc(-c4ccc(S(C)(=O)=O)cc4)nc3)CC2)n1	75
CNC(=O)Nc1ccc2c(c1)[C@@]1(CC2)OC(=O)N(CC(=O)N(Cc2ccc(F)cc2)[C@@H](C)C(F)(F)F)C1=O	10
Cl.O=C(O)c1cc(-c2ccc(C3CCNCC3)cc2)c2ccc(-c3ccc(C(F)(F)F)cc3)cc2c1	57
O=c1[nH]c2ccccc2n1C1CCN(Cc2ccc(-c3[nH]c4cc5ncnc5cc4nc3-c3ccccc3)cc2)CC1	83
COc1ccccc1CN[C@H]1C2CCN(CC2)[C@H]1C(c1ccccc1)c1ccccc1	99
CC(C)(C)NC[C@H](O)COc1nsnc1N1CCOCC1	40
CNC(=O)Nc1ccc(-c2nc(N3CC4CCC(C3)O4)c3cnn(C4CCC5(CC4)OCCO5)c3n2)cc1	75
C=CC(=O)Nc1ccc2[nH]c(=O)n(C3CCN(Cc4ccc(-c5nc6cc[nH]c(=O)c6cc5-c5ccccc5)cc4)CC3)c2c1	68
CC(C)NC(=O)N1CC[C@H](NC2=Nc3cc(F)ccc3N(CC(F)F)c3ccc(Cl)cc32)C1	69
Cc1c[nH]c2nccc(Oc3c(F)cc(Nc4cc(Cl)nc(N)n4)cc3F)c12	4

Task: Quick check: Population Tubulin-Different-Phenotype (%) of CC(C)Oc1ccccc1C(=O)Nc1ccccc1C(=O)Nc1cccc(S(=O)(=O)C(F)(F)F)c1 ?
Result: 77

Task: Quick check: Population Tubulin-Different-Phenotype (%) of C=CC(=O)Nc1cccc(Sc2nc(Nc3ccc(N4CCN(C)CC4)cc3)ncc2Cl)c1 ?
Result: 30

###

test system: HEK-293T; test: Multiplex assay against HEK293T; format: toxicity, cell-based; conditions: human, 48 h, 10 µM, compound concentration 10 uM, replicate 1
PROPERTY MEASURED: Population Fragmented Nuclei (%)
I only need the number, in %, no unit after it.

Worked set:
CCOC(=O)Nc1cc(-c2ccc(C)c(NS(C)(=O)=O)c2)nn2c(C)nnc12	19
Cc1ccc2c(c1)c1c(n2CCc2ccc(C)nc2)CCN(C)C1 [LATREPIRDINE]	41
CC(C)Oc1ccccc1C(=O)Nc1ccccc1C(=O)Nc1cccc(S(=O)(=O)C(F)(F)F)c1	35
COc1cc(Nc2nccc(-c3cnn4nc(OC)ccc34)n2)cc(C(F)(F)F)c1	39
CNC(=O)Nc1ccc(-c2nc(N3CC4CCC(C3)O4)c3cnn(C4CCC5(CC4)OCCO5)c3n2)cc1	35

Task: Quick check: Population Fragmented Nuclei (%) of CC(C)(C)NC[C@H](O)COc1nsnc1N1CCOCC1 ?
Result: 12

Task: Quick check: Population Fragmented Nuclei (%) of CC(C)OC(=O)N1CCC(Oc2ncnc3c2cnn3-c2ccc(S(C)(=O)=O)cc2F)CC1 ?
Result: 18

###

Recorded Population Membrane Permeable-Phenotype (%) by entry
tested on: Fibroblast; experiment: Multiplex assay against human fibroblast; format: toxicity, cell-based; details: 24 h, 1 µM, compound concentration 1 uM, replicate 1
Enter the number, and then the unit.

Worked set:
COc1ccccc1CN[C@H]1C2CCN(CC2)[C@H]1C(c1ccccc1)c1ccccc1 [CP-96345]	23%
CC(C)NC(=O)N1CC[C@H](NC2=Nc3cc(F)ccc3N(CC(F)F)c3ccc(Cl)cc32)C1	25%
CCc1nn(CCCN2CCN(c3cccc(Cl)c3)CC2)c(=O)n1CCOc1ccccc1.Cl [NEFAZODONE HYDROCHLORIDE]	16%
Cc1ccc2c(c1)c1c(n2CCc2ccc(C)nc2)CCN(C)C1 [LATREPIRDINE]	22%
Cl.O=C(O)c1cc(-c2ccc(C3CCNCC3)cc2)c2ccc(-c3ccc(C(F)(F)F)cc3)cc2c1	44%
O=c1cc(N2CCOCC2)oc2c(-c3cccc4c3sc3ccccc34)cccc12	31%
O=C(c1cc2c(cc1F)OC(c1ccc(F)cc1)(c1ccc(Cl)cc1Cl)O2)N1CCOCC1 (stereo not drawn)	18%

Now look at this one.
Task: What measured Population Membrane Permeable-Phenotype (%) is associated with COC(=O)C1=C(C)NC(C)=C(C(=O)OCCCN2CCC(c3ccccc3)(c3ccccc3)CC2)[C@H]1c1cccc([N+](=O)[O-])c1 [NIGULDIPINE] on Fibroblast?
Result: 7%

src = ChEMBL document CHEMBL4689842
